- experiment: Rat oral pharmacokinetics of capecitabine with or without triethyl citrate
- Type: in vivo, rats
- conditionsUsed: capecitabine in rat plasma, capecitabine 5 mg/kg, triethyl citrate 45 mg/kg where given, mean n=3
measurementKind: Tmax (min)
One number for each entry, in min.

Return Tmax for the following compound: CCCCCOC(=O)Nc1nc(=O)n([C@@H]2O[C@H](C)[C@@H](O)[C@H]2O)cc1F
48

---

- experiment: Rat oral pharmacokinetics of capecitabine with or without triethyl citrate/triacetin
- Format: in vivo, rats
- conditionsUsed: capecitabine in rat plasma, capecitabine 5 mg/kg, triethyl citrate 22.5 mg/kg + triacetin 22.5 mg/kg where given, mean n=3
measurementKind: Cmax (ng/mL)
One number for each entry, in ng/mL.

Supply Cmax value. Item: CCCCCOC(=O)Nc1nc(=O)n([C@@H]2O[C@H](C)[C@@H](O)[C@H]2O)cc1F
8.9

---

- experiment: in vivo
- conditionsUsed: male, Sprague-Dawley, rat, po, 30 mg/kg
measurementKind: Cmax (ng/mL)
Numbers only, in ng/mL.

Assign Cmax to the following record: COC(=O)[C@H](c1ccccc1Cl)N1CCc2sccc2C1 [Clopidogrel Bisulfate, clopidogrel bisulfate]
7.3

---

- experiment: Rat oral pharmacokinetics of capecitabine with or without triethyl citrate/triacetin
- Type: in vivo, rats
- conditionsUsed: capecitabine in rat plasma, capecitabine 5 mg/kg, triethyl citrate 22.5 mg/kg + triacetin 22.5 mg/kg where given, mean n=3, read-out: AUC0-24 hr of capecitabine
measurementKind: AUC(0-t) (ng·h/mL)
Give bare numbers, in ng·h/mL.

Answer with the recorded AUC(0-t) of CCCCCOC(=O)Nc1nc(=O)n([C@@H]2O[C@H](C)[C@@H](O)[C@H]2O)cc1F only.
15

---

- experiment: Rat oral pharmacokinetics of capecitabine with or without triethyl citrate/triacetin
- Assay type: in vivo, rats
- conditionsUsed: capecitabine in rat plasma, capecitabine 5 mg/kg, triethyl citrate 22.5 mg/kg + triacetin 22.5 mg/kg where given, mean n=3
measurementKind: Tmax (min)
One number for each entry, in min.

Indicate the recorded Tmax value for this compound: CCCCCOC(=O)Nc1nc(=O)n([C@@H]2O[C@H](C)[C@@H](O)[C@H]2O)cc1F
24

---

- experiment: Rat oral pharmacokinetics of clopidogrel bisulfate (3 mg/kg) with or without triethyl citrate/triacetin
- Format: in vivo, rats
- conditionsUsed: Sprague-Dawley, plasma
measurementKind: Cmax (ng/mL)
Numbers only, in ng/mL.

Assign Cmax to the following record: COC(=O)[C@H](c1ccccc1Cl)N1CCc2sccc2C1 [Clopidogrel Bisulfate, clopidogrel bisulfate]
0.8

---

- experiment: Rat oral pharmacokinetics of capecitabine with or without triethyl citrate
- Format: in vivo, rats
- conditionsUsed: capecitabine in rat plasma, capecitabine 5 mg/kg, triethyl citrate 45 mg/kg where given, mean n=3
measurementKind: Cmax (ng/mL)
Numbers only, in ng/mL.

Query Cmax for CCCCCOC(=O)Nc1nc(=O)n([C@@H]2O[C@H](C)[C@@H](O)[C@H]2O)cc1F [Capecitabine, capecitabine]
11.8

---

- experiment: Rat oral pharmacokinetics of clopidogrel bisulfate (3 mg/kg) with or without triethyl citrate/triacetin
- Format: in vivo, rats
- conditionsUsed: Sprague-Dawley, plasma
measurementKind: Tmax (h)
Numbers only, in h.

Tell me Tmax reported for COC(=O)[C@H](c1ccccc1Cl)N1CCc2sccc2C1 [Clopidogrel Bisulfate, clopidogrel bisulfate]
2.9

// data source = patent US20140121178A1
